Test system: Staphylococcus sp.
experiment notes: In vitro antibacterial evaluation: minimum inhibitory concentration (MIC), broth dilution method
Assay type: cell-based
condition notes: strain GC 4544
readout name: MIC Staphylococcus aureus (GC 4544) (µg/mL)
The figure you give is taken to be in µg/mL; do not add the unit.

Query string: Name the recorded MIC Staphylococcus aureus (GC 4544) of the compound listed here: N=C1NCC(C(O)C2NC(=O)C(CC3CCC(OC4OC(CO)C(OC5OC6COC7(OC6C(O)C5O)C5CC6CC(C5)CC7C6)C(O)C4O)CC3)NC(=O)C(CC3CCCCC3)NC(=O)CNC(=O)C(CO)NC(=O)C(C(O)C3CNC(=N)N3C3OC(CO)C(O)C(O)C3O)NC2=O)N1 (stereo not drawn) [Example 223]
Result string: 64

Query string: Name the recorded MIC Staphylococcus aureus (GC 4544) of the compound listed here: COc1ccc2cc(C3OCC4OC(OC5C(CO)OC(Oc6ccc(CC7NC(=O)C(C(C)c8ccccc8)NC(=O)CNC(=O)C(CO)NC(=O)C(CC8CNC(=N)N8C8OC(CO)C(O)C(O)C8O)NC(=O)C(CC8CNC(=N)N8)NC7=O)cc6)C(O)C5O)C(O)C(O)C4O3)ccc2c1 (stereo not drawn)
Result string: 16

Query string: Name the recorded MIC Staphylococcus aureus (GC 4544) of the compound listed here: CCCCN1CC(C(O)C2NC(=O)C(C(O)C3CNC(=N)N3)NC(=O)C(Cc3ccc(OC4OC(CO)C(OC5OC6COC7(OC6C(O)C5O)C5CC6CC(C5)CC7C6)C(O)C4O)cc3)NC(=O)C(C(C)c3ccccc3)NC(=O)CNC(=O)C(CO)NC2=O)N(C2OC(CO)C(O)C(O)C2O)C1=N (stereo not drawn)
Result string: 4

* * *

Please go through the items and note down their MIC Staphylococcus aureus (GC 1131).
Tested on: Staphylococcus sp.
experiment notes: In vitro antibacterial evaluation: minimum inhibitory concentration (MIC), broth dilution method
Type: cell-based
condition notes: broth dilution, 18 hours at 35° C.
Text: […]

Query string: Name the recorded MIC Staphylococcus aureus (GC 1131) of the molecule listed here: CN=C1N(C)CC(C(O)C2NC(=O)C(Cc3ccc(OC4OC(CO)C(OC5OC6COC7(OC6C(O)C5O)C5CC6CC(C5)CC7C6)C(O)C4O)cc3)NC(=O)C(C(C)c3ccccc3)NC(=O)CNC(=O)C(CO)NC(=O)C(C(O)C3CN(C)C(=NC)N3C3OC(CO)C(O)C(O)C3O)NC2=O)N1C (stereo not drawn) [Example 81]
Result string: >128 mg/L

Query string: Name the recorded MIC Staphylococcus aureus (GC 1131) of the molecule listed here: CCCCCCCN1CC(C(O)C2NC(=O)C(C(O)C3CNC(=N)N3)NC(=O)C(Cc3ccc(OC4OC(CO)C(OC5OC6COC7(OC6C(O)C5O)C5CC6CC(C5)CC7C6)C(O)C4O)cc3)NC(=O)C(C(C)c3ccccc3)NC(=O)CNC(=O)C(CO)NC2=O)N(C2OC(CO)C(O)C(O)C2O)C1=N (stereo not drawn) [Example 83]
Result string: 4 mg/L

Query string: Name the recorded MIC Staphylococcus aureus (GC 1131) of the molecule listed here: CC(c1ccccc1)C1NC(=O)CNC(=O)C(CO)NC(=O)C(C(O)C2CN(Cc3ccccc3)C(=NCc3ccccc3)N2C2OC(CO)C(O)C(O)C2O)NC(=O)C(C(O)C2CN(Cc3ccccc3)C(=NCc3ccccc3)N2Cc2ccccc2)NC(=O)C(Cc2ccc(OC3OC(CO)C(OC4OC5COC6(OC5C(O)C4O)C4CC5CC(C4)CC6C5)C(O)C3O)cc2)NC1=O (stereo not drawn) [Example 79]
Result string: 8 mg/L
